Provide the reported log10(Kd) of each item.
target.under.test: SARS-CoV-2 Spike S1-His (SARS-CoV-2, UniProt P0DTC2 16-685)
assay.comment: Octet BLI, IgG, monovalent
Reminder: these figures are log10 of reported Kd, in pM before transformation.

The binder listed as A-21 (antibody, V domains shown) VH: EVQLVESGGGLVQPGGSLRLSCAASGFTFSRYWMHWVRQAPGKGLVWVSRINSDGSSTTYADSVKGRFTISRDNAKNTLYLQMNSLRAEDTAVYYCARELYYYDSRGAEEGEGWFDPWGQGTLVTVSS VL: QSVLTQPPSVSGAPGQRVTISCTGISSNIGAGYDVHWYQQLPGTAPKLLIYGNSNRPSGVPDRFSASKSGTSAPLAITGLQAEDEADYYCQSSDRSLSGSVFGTGTKVTVL has a reported log10(Kd) of 2.72

The binder listed as A-24 (antibody, V domains shown) VH: EVQLVESGGGLVKPGRSLRLSCAASGFTFADYAMSWFRQAPGKGLEWVGFIRSKPYGGTTEYAASVKGRFTISRDDSKSIAYLQMNSLKTEDTAVYYCSRDPWYCSGGDCYAVTGSWFDPWGQGTLVTVSS VL: DIQMTQSPSSLSASVGDRVTITCQASQDIKKYLNWYQQKPGKAPKLLIYDVSNLETGVPSRFSGSGSGTDFTFTISSLQPEDVAIYYCQQYDNLPQTFGQGTKVEIK has a reported log10(Kd) of 3.73

The binder listed as A-21.2 (antibody, V domains shown) VH: EVQLVESGGGLVQPGGSLRLSCAASGFTFSRYWMHWVRQAPGKGLVWVSRINSDGSSTTYADSVKGRFTISRDNAKNTLYLQMNSLRAEDTAVYYCARELYYYDSRGAEEGEGWFDPWGQGTLVTVSS VL: QSVLTQPPSVSGAPGQRVTISCTGISSNIGAQYDVHWYQQLPGTAPKLLIYGNSNRPRGVPDRFSASKSGTSAPLAITGLQAEDEADYYCQSSDRSVSGSVFGTGTKVTVL has a reported log10(Kd) of 2.29

The binder listed as A-24.2 (antibody, V domains shown) VH: EVQLVESGGGLVKPGRSLRLSCAASGFTFADYTMSWFRQAPGKGLEWVGFIRSEPYGGTTEYAASVKGRFTISRDDSKSIAYLQMNSLKTEDTAVYYCSRDPWYCSGGDCYAVTGSWFDPWGQGTLVTVSS VL: DIQMTQSPSSLSASVGDRVTITCQASQDIKQYLNWYQQKPGKAPKLLIYDQSNLETGVPSRFSGSGSGTDFTFTISSLQPEDVAIYYCQQYWNLPQTFGQGTKVEIK has a reported log10(Kd) of 2.46

The binder listed as A-20 (antibody, V domains shown) VH: QVQLVESGGGVVQPGRSLRLSCAASGFTFSNFAMHWVRQAPGKGLEWVAVILYDGINKYYADSVKGRFTISRGNSKNTLSLQMNSLRAEDTAVYYCARAQNYYDRSGTLQLDAFDIWGQGTLVTVSS VL: AIQMTQSPSSLSASVGDRVTITCRASQGIRNDLGWYQQKPGKAPKLLIYAASSLQSGVPSRFSGSGSGTDFTLTISSLQPEDFATYYCLQDYNYPLTFGGGTKVEIK has a reported log10(Kd) of 3.60
